# assay.target: CDK2/CyclinE1 (Homo sapiens (Human), UniProt P24941)
# test: CDK2/CyclinE1 enzyme activity test (ADP-Glo)
# test.settings: 150 μM ATP, 25° C. 60 minutes, read-out: CDK2/Cyclin E1 IC50
Catalogue of IC50 readings, one per entry.
Supply the numeric figure in nM, leaving out any unit text.

molecule	assay.target	unit.spec	IC50
Cc1cc2cnc(NC3CCN(S(C)(=O)=O)CC3)nc2c(N[C@@H]2CCC[C@@]2(C)O)n1	CDK2/CyclinE1 (Homo sapiens (Human), UniProt P24941)	nM	3.92
Cc1cn(C)nc1Nc1nc(C(F)F)cc2cnc(NC3CCN(S(C)(=O)=O)CC3)nc12	CDK2/CyclinE1 (Homo sapiens (Human), UniProt P24941)	nM	4.73
CC(Nc1nc(C(F)F)cc2cnc(NC3CCN(S(C)(=O)=O)CC3)nc12)C(F)(F)F (stereo not drawn)	CDK2/CyclinE1 (Homo sapiens (Human), UniProt P24941)	nM	4.72
C[C@@H]1CCCN1c1nc(C(F)F)cc2cnc(NC3CCN(S(C)(=O)=O)CC3)nc12	CDK2/CyclinE1 (Homo sapiens (Human), UniProt P24941)	nM	4.02
C[C@@]1(O)CCC[C@H]1Nc1nccc2cnc(NC3CCN(S(C)(=O)=O)CC3)nc12	CDK2/CyclinE1 (Homo sapiens (Human), UniProt P24941)	nM	1.67

Provide IC50, system CDK2/CyclinE1 (Homo sapiens (Human), UniProt P24941), entry "C[C@@]1(O)CCC[C@H]1Nc1nc(C(F)F)cc2cnc(NC3CCN(S(C)(=O)=O)CC3)nc12"
4.15

Answer briefly: IC50 recorded on CDK2/CyclinE1 (Homo sapiens (Human), UniProt P24941) for CS(=O)(=O)N1CCC(Nc2ncc3cc(C(F)F)nc(N[C@@H]4CCCC4(F)F)c3n2)CC1 (single isomer, unassigned)
3.52

Return reported IC50 for target or system CDK2/CyclinE1 (Homo sapiens (Human), UniProt P24941), item "Cn1cc(Cl)c(Nc2nc(C(F)F)cc3cnc(NC4CCN(S(C)(=O)=O)CC4)nc23)n1" .
1.33

Please report IC50 with CDK2/CyclinE1 (Homo sapiens (Human), UniProt P24941) for item CS(=O)(=O)N1CCC(Nc2ncc3cc(C(F)F)nc(N[C@H]4CCCC4(F)F)c3n2)CC1 (single isomer, unassigned) .
4.32

----------
pIC50 values by entry
# assay.target: CDK9/CyclinT1 (Homo sapiens (Human), UniProt P50750)
# Sequence (P50750 whole entry): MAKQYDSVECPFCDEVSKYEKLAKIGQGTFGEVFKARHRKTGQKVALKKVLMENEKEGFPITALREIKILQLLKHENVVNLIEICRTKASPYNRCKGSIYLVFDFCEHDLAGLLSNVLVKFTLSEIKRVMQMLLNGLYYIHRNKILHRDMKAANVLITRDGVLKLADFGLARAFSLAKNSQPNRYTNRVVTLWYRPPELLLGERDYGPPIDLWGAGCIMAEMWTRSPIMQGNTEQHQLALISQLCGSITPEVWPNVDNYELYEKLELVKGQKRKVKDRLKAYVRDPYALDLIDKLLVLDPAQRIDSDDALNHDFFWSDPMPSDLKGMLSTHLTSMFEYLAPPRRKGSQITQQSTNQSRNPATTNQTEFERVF
# Sequence (O60563 whole entry partner): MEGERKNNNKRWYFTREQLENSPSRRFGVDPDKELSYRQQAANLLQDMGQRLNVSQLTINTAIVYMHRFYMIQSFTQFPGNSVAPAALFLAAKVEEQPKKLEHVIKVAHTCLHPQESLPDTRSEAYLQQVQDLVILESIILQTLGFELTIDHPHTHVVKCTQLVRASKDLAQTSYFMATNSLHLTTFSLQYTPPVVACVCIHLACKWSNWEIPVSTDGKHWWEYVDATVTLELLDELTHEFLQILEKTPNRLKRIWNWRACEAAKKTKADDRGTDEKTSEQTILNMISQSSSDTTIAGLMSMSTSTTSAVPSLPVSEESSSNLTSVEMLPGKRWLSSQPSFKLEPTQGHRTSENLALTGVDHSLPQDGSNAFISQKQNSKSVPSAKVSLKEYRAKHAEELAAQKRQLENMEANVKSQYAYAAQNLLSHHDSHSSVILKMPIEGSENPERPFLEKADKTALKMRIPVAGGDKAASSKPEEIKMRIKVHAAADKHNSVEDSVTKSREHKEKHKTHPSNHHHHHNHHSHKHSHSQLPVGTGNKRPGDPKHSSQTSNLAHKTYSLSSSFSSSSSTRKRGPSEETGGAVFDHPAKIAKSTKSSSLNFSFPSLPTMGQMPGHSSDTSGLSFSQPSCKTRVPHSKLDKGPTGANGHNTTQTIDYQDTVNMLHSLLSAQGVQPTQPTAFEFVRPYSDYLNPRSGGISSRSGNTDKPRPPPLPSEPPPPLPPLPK
# test: CDK9/CyclinT1 enzyme activity test (ADP-Glo)
# test.settings: 100 μM ATP, 25° C. 120 minutes, read-out: CDK 9/Cyclin T1 IC50
Just so you know, pIC50 here is -log10 of the concentration in molar units; reply with that number alone.

compound	pIC50
CS(=O)(=O)N1CCC(Nc2ncc3cc(C(F)F)nc(N[C@@H]4CCCC4(F)F)c3n2)CC1 (single isomer, unassigned)	7.43
Cc1cn(C)nc1Nc1nc(C(F)F)cc2cnc(NC3CCN(S(C)(=O)=O)CC3)nc12	6.75
CS(=O)(=O)N1CCC(Nc2ncc3cc(C(F)F)nc(N[C@H]4CCCC4(F)F)c3n2)CC1 (single isomer, unassigned)	7.82
Cn1cc(Cl)c(Nc2nc(C(F)F)cc3cnc(NC4CCN(S(C)(=O)=O)CC4)nc23)n1	6.98

Now turn to the next compound.
# return recorded pIC50 for input "Cc1cc2cnc(NC3CCN(S(C)(=O)=O)CC3)nc2c(N[C@@H]2CCC[C@@]2(C)O)n1"
7.05

----------
# assay.target: CDK6/CyclinD1 (Homo sapiens (Human), UniProt Q00534)
# Sequence (Q00534 whole entry): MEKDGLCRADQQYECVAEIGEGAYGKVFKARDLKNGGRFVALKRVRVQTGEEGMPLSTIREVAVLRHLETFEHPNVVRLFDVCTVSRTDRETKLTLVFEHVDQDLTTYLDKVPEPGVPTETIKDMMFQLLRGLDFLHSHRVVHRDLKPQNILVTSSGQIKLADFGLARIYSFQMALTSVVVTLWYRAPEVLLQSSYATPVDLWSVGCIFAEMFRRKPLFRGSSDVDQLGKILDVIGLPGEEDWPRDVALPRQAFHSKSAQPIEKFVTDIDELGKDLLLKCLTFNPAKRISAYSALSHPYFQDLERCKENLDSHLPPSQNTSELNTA
# Sequence (P24385 whole entry partner): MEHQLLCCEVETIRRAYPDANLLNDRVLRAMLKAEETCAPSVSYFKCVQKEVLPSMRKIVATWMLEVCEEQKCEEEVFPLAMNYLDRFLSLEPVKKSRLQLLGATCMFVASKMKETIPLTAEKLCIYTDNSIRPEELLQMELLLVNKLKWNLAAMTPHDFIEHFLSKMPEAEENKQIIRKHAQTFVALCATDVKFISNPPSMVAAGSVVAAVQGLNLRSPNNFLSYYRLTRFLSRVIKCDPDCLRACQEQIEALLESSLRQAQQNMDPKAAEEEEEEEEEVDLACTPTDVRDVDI
# test: CDK6/CyclinD1 enzyme activity test (LANCE Ultra TR-FRET)
# test.settings: 250 μM ATP, 25° C. 120 minutes, read-out: CDK6/Cyclin D1 IC50
quantity: IC50 (nM)
Express it in nM; write the number only.

molecule	quantity	unit.spec	result
C[C@@H]1CCCN1c1nc(C(F)F)cc2cnc(NC3CCN(S(C)(=O)=O)CC3)nc12	IC50	nM	0.46
Cc1cc2cnc(NC3CCN(S(C)(=O)=O)CC3)nc2c(N[C@@H]2CCC[C@@]2(C)O)n1 [Compound 8]	IC50	nM	0.81
CS(=O)(=O)N1CCC(Nc2ncc3ccnc(NC4CCCC4)c3n2)CC1	IC50	nM	1.49
CC(Nc1nc(C(F)F)cc2cnc(NC3CCN(S(C)(=O)=O)CC3)nc12)C(F)(F)F (centres unmarked)	IC50	nM	1.32

Lab note: CDK6/CyclinD1 (Homo sapiens (Human), UniProt Q00534) assay, enter IC50 for CS(=O)(=O)N1CCC(Nc2ncc3cc(C(F)F)nc(N[C@H]4CCCC4(F)F)c3n2)CC1 (single isomer, unassigned) here
0.34

----------
# assay.target: CDK4/CyclinD1 (Homo sapiens (Human))
# Sequence (P11802 whole entry, one chain of several): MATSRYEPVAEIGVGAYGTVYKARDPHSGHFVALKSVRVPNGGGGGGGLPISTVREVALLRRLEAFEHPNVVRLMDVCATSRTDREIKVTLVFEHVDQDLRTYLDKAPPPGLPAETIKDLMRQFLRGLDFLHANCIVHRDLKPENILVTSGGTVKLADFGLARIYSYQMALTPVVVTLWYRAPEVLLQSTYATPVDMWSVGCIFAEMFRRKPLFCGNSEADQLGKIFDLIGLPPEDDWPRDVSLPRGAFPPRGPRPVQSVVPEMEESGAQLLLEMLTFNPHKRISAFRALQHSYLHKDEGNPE
# test: CDK4/CyclinD1 enzyme activity test (LANCE Ultra TR-FRET)
# test.settings: 350 μM ATP, 25° C. 120 minutes, read-out: CDK4/Cyclin D1 IC50
quantity: IC50

The examples below pair each entry with its known result.
compound	assay.target	IC50
C[C@@]1(O)CCC[C@H]1Nc1nccc2cnc(NC3CCN(S(C)(=O)=O)CC3)nc12 [Compound 1]	CDK4/CyclinD1 (Homo sapiens (Human))	3.9 nM
Cc1cc2cnc(NC3CCN(S(C)(=O)=O)CC3)nc2c(N[C@@H]2CCC[C@@]2(C)O)n1 [Compound 8]	CDK4/CyclinD1 (Homo sapiens (Human))	1.23 nM

Tell us which IC50 value is on record for CS(=O)(=O)N1CCC(Nc2ncc3ccnc(NC4CCCC4)c3n2)CC1 [Compound 4]
1.5 nM

----------
Measured pIC50, listed per entry.
# assay.target: CDK4/CyclinD1 (Homo sapiens (Human))
# test: CDK4/CyclinD1 enzyme activity test (LANCE Ultra TR-FRET)
# test.settings: 350 μM ATP, 25° C. 120 minutes, read-out: CDK4/Cyclin D1 IC50
# pIC50: negative log10 of molar concentration; output just the value

Answered examples (6):
compound	pIC50
Cc1cc2cnc(NC3CCN(S(C)(=O)=O)CC3)nc2c(N[C@@H]2CCC[C@@]2(C)O)n1 (racemic) [Compound 6]	8.97
CS(=O)(=O)N1CCC(Nc2ncc3cc(C(F)F)nc(N[C@@H]4CCCC4(F)F)c3n2)CC1 (single isomer, unassigned)	9.30
CS(=O)(=O)N1CCC(Nc2ncc3cc(C(F)F)nc(N[C@H]4CCCC4(F)F)c3n2)CC1 (single isomer, unassigned)	9.34
Cn1cc(Cl)c(Nc2nc(C(F)F)cc3cnc(NC4CCN(S(C)(=O)=O)CC4)nc23)n1	9.09
CC(Nc1nc(C(F)F)cc2cnc(NC3CCN(S(C)(=O)=O)CC3)nc12)C(F)(F)F (stereo not shown)	8.81
C[C@@]1(O)CCC[C@H]1Nc1nc(C(F)F)cc2cnc(NC3CCN(S(C)(=O)=O)CC3)nc12	8.59

Answer with reported pIC50 of "Cc1cn(C)nc1Nc1nc(C(F)F)cc2cnc(NC3CCN(S(C)(=O)=O)CC3)nc12"
8.37

----------
# maps each entry to its IC50
# assay.target: CDK2/CyclinA2 (Homo sapiens (Human), UniProt P24941)
# test: CDK2/CyclinA2 enzyme activity test (ADP-Glo)
# test.settings: 50 μM ATP, 25° C. 60 minutes, read-out: CDK2/Cyclin A2 IC50
Please state the figure in pM; there is no need to write the unit.

compound	unit.spec	IC50
Cc1cc2cnc(NC3CCN(S(C)(=O)=O)CC3)nc2c(N[C@@H]2CCC[C@@]2(C)O)n1 (racemic) [Compound 6]	pM	520
CS(=O)(=O)N1CCC(Nc2ncc3ccnc(NC4CCCC4)c3n2)CC1 [Compound 4]	pM	270
C[C@@]1(O)CCC[C@H]1Nc1nc(C(F)F)cc2cnc(NC3CCN(S(C)(=O)=O)CC3)nc12 [Compound 14]	pM	1250
Cc1cc2cnc(NC3CCN(S(C)(=O)=O)CC3)nc2c(N[C@@H]2CCC[C@@]2(C)O)n1 [Compound 8]	pM	730

# return recorded IC50 for entry C[C@@]1(O)CCC[C@H]1Nc1nccc2cnc(NC3CCN(S(C)(=O)=O)CC3)nc12 [Compound 1]
560

----------
# assay.target: CDK7/CyclinH/MAT1 (Homo sapiens (Human))
# Sequence (P50613 whole entry): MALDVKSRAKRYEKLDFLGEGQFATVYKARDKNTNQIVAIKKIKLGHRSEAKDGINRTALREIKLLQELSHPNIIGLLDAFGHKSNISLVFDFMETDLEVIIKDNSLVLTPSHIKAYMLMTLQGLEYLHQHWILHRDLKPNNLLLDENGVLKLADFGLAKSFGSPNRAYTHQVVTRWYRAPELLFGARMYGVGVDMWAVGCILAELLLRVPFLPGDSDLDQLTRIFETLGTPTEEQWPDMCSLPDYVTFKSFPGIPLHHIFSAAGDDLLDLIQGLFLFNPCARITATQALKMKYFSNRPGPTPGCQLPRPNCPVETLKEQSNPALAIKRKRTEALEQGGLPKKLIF
# Sequence (P51946 whole entry partner): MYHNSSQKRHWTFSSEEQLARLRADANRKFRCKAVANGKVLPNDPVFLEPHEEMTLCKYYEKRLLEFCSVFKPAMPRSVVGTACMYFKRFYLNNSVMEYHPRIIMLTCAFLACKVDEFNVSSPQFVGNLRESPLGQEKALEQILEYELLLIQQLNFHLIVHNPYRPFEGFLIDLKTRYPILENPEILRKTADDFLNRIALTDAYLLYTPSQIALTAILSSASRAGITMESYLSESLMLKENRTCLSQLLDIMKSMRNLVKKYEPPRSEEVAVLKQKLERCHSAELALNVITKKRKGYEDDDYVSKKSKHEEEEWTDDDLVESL
# Sequence (P51948 whole entry partner): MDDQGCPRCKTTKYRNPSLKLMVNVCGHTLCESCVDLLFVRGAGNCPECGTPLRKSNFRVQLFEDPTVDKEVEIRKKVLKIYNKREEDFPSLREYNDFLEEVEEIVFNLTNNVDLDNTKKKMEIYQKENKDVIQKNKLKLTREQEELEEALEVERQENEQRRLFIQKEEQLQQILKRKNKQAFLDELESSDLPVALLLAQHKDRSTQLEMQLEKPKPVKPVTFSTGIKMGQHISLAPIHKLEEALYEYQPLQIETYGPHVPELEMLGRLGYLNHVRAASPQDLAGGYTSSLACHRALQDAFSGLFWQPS
# test: CDK7/CyclinH/MAT1 enzyme activity test (ADP-Glo)
# test.settings: 10 μM ATP, 25° C. 120 minutes, read-out: CDK7/Cyclin H IC50
quantity: pIC50
In textbook form, pIC50 equals minus log to base ten of the concentration in mol/L.

Answer with reported pIC50 of Cc1cc2cnc(NC3CCN(S(C)(=O)=O)CC3)nc2c(N[C@@H]2CCC[C@@]2(C)O)n1 [Compound 8]
7.39

----------
Each entry below carries its recorded IC50.
# assay.target: CDK1/CyclinB1 (Homo sapiens (Human))
# Sequence (P06493 whole entry): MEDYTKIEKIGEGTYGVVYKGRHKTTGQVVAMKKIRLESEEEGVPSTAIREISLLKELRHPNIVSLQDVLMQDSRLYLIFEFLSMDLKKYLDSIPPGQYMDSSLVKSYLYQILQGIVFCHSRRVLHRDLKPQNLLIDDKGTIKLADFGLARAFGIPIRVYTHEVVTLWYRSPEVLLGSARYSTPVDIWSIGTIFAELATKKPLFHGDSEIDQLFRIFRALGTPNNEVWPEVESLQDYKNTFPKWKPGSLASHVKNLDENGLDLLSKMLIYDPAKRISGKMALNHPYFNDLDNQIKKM
# Sequence (P14635 whole entry partner): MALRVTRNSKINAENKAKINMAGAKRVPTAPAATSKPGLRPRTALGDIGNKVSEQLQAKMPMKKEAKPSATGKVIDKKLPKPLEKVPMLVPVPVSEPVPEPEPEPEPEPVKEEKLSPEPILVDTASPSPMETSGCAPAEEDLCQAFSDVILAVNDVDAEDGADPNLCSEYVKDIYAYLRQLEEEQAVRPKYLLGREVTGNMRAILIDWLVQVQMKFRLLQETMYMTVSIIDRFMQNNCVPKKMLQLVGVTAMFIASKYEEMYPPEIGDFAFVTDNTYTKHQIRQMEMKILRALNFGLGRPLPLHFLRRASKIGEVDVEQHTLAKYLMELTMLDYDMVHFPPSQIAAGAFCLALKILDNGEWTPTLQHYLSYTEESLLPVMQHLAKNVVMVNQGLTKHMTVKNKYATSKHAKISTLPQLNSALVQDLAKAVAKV
# test: CDK1/CyclinB1 enzyme activity test (ADP-Glo)
# test.settings: 25 μM ATP, 25° C. 120 minutes, read-out: CDK1/Cyclin B IC50
Reply numerically in nM, unit not repeated.

Example molecules with recorded IC50:
molecule	IC50 (nM)
CS(=O)(=O)N1CCC(Nc2ncc3cc(C(F)F)nc(N[C@H]4CCCC4(F)F)c3n2)CC1 (single isomer, unassigned) [Compound 21]	8.48
Cc1cc2cnc(NC3CCN(S(C)(=O)=O)CC3)nc2c(N[C@@H]2CCC[C@@]2(C)O)n1 [Compound 8]	6.77
C[C@@]1(O)CCC[C@H]1Nc1nccc2cnc(NC3CCN(S(C)(=O)=O)CC3)nc12 [Compound 1]	2.72

Now for the molecule whose IC50 we want.
Could you please provide reported IC50 for CS(=O)(=O)N1CCC(Nc2ncc3cc(C(F)F)nc(N[C@@H]4CCCC4(F)F)c3n2)CC1 (single isomer, unassigned) [Compound 22] ? Thanks!
8.86
